Values compiled from patent US7205305B2.

# pIC50 annotations
Target: activated p38 (Homo sapiens, UniProt Q16539)
Sequence (Q16539 whole entry): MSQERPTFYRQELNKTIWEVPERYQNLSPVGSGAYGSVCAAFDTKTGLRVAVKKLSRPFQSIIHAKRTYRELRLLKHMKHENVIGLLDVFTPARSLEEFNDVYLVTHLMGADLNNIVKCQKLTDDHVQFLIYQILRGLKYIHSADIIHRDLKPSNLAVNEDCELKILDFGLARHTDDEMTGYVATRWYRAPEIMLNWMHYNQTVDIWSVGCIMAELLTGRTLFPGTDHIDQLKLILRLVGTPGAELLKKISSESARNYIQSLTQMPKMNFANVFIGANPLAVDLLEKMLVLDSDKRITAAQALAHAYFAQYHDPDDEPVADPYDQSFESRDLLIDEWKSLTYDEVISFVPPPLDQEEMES
Test: Inhibition of phosphorylation of EGF receptor peptide ("kinase")
Conditions: inhibition of phosphorylation of EGF receptor peptide by activated p38
pIC50: −log10 of the molar value.

As a guide, the following entries are already answered.
• Cc1nc(=O)c(-c2c(Cl)cccc2Cl)c2ccc(Sc3ccc(F)c(Cl)c3)nn12 [Compound 40] = 6.00 to 7.00
• NC(=O)C(c1cccc(-c2ccc(F)cc2)n1)c1c(F)cccc1Cl (centres unmarked) [Compound 329] = 6.00 to 7.00
• NC(=O)C(c1cccc(-c2ccccc2Cl)n1)c1c(Cl)cccc1Cl (centres unmarked) [Compound 375] = ≥ 7.00
• O=c1ncn2nc(Sc3ccccc3)ccc2c1-c1c(F)cccc1F [Compound 17] = ≤ 6.00
• NC(=O)N(c1cccc(-c2ccc(Cl)cc2)n1)c1c(Cl)cccc1Cl [Compound 408] = ≥ 7.00

Field: next molecule
Which value of pIC50 has been reported for NC(=O)C(c1cccc(-c2ccc(F)cc2O)n1)c1c(Cl)cccc1Cl (centres unmarked) [Compound 390] in the records? ≤ 6.00

* * *

Test system: IL-1 production in LPS-stimulated PBMCs
Experiment: Inhibition of IL-1 production in LPS-stimulated PBMCs ("cell")
Format: cell-based, human
Details: Homo sapiens, PBMC
pIC50: −log10 of the molar value.
Parameter: pIC50. Scope: all listed entries.

Answered examples (5):
* O=C1NCN2N=C(Sc3ccccc3C(=O)O)C=CC2=C1c1c(Cl)cccc1Cl | 6.30 to 7.00
* COc1cc(Cl)c(C2=C3C=CC(Sc4ccc(F)cc4)=NN3CNC2=O)cc1OC | 6.30 to 7.00
* COc1cc(Cl)c(C2=C3C=CC(Sc4ccc(F)cc4)=NN3CNC2=O)cc1O | 6.30 to 7.00
* O=c1ncn2nc(Sc3ccccc3)ccc2c1-c1c(F)cccc1F | ≤ 6.30
* Cc1ccccc1-c1c(=O)ncn2nc(Sc3ccccc3)ccc12 | ≤ 6.30

Consider the compound shown here: Cc1cccc(C)c1N(C(N)=O)c1cccc(-c2ccc(F)cc2)n1 What is its recorded pIC50? 6.30 to 7.00

Would you kindly repeat that for NC(=O)C(c1cccc(-c2ccc(Cl)cc2)n1)c1c(Cl)cccc1Cl (stereo not shown) ? ≤ 6.30

Subsequent entry: Cc1cc(Cl)ccc1Sc1ccc2c(-c3c(Cl)cccc3Cl)c(=O)ncn2n1 6.30 to 7.00

How about O=c1ncn2nc(Sc3cccc(Cl)c3)ccc2c1-c1c(Cl)cccc1Cl ? 6.30 to 7.00

Field entry: NC(=O)C(c1cccc(-c2cccc(Cl)c2)n1)c1c(Cl)cccc1Cl (stereo not shown) 6.30 to 7.00

* * *

Molecular target: activated p38 (Homo sapiens, UniProt Q16539)
Experiment: Inhibition of phosphorylation of EGF receptor peptide ("kinase")
Details: inhibition of phosphorylation of EGF receptor peptide by activated p38
Quantity Kind: IC50

- COC(=O)c1ccccc1Sc1ccc2c(-c3c(Cl)cccc3Cl)c(=O)ncn2n1: ≥ 1000 nM
- NC(=O)C(c1cccc(-c2ccccc2CNc2ccccc2)n1)c1c(Cl)cccc1Cl (centres unmarked): 100 to 1000 nM
- Cc1ccccc1-c1cccc(N(C(N)=O)c2c(Cl)cccc2Cl)n1: ≤ 100 nM
- COc1ccc(-c2c(=O)ncn3nc(Sc4ccc(F)cc4)ccc23)c(Cl)c1OC: ≥ 1000 nM
- Nc1ccc(F)c(-c2c(=O)ncn3nc(Sc4ccc(F)cc4)ccc23)c1Cl: ≥ 1000 nM
- Cc1cccc(-c2cccc(C(C(N)=O)c3c(Cl)cccc3Cl)n2)c1 (centres unmarked): ≤ 100 nM

Sample NC(=O)C(c1cccc(-c2ccc(C(F)(F)F)cc2)n1)c1c(F)cccc1Cl (centres unmarked) — what was its IC50? ≥ 1000 nM

Then this compound: O=c1ncn2nc(Sc3ccccc3Br)ccc2c1-c1c(Cl)cccc1Cl 100 to 1000 nM
